System: TK-10 renal
procedureSummary: NCI-60 one-dose screen, 48 h (100 = growth as untreated, 0 = no growth, -100 = all killed)
conditionsUsed: 10 µM unless noted
The panel holds about 83,000 compounds, 20% with a hit somewhere; the sample as a whole holds those more often.
Reported growth values for a set of compounds
Numeric only. Scale: %

Please review the following examples before continuing.
# compound, growth / %
data = [
    ("C=C1C(=O)O[C@H]2[C@H]1CC/C(COC(=O)/C=C\\C(=O)NCc1ccc(Cn3c(=O)sn(CCCC)c3=O)cc1)=C\\CC[C@@]1(C)O[C@@H]21", -76.9),
    ("CN(C)c1ccc(/C=C2\\C=C(c3ccccc3)N(CCc3ccccc3)C2=O)cc1", 88.7),
    ("COc1ccc(-c2nc3ccccn3c2/C=C/C(=O)c2cc(OC)c(OC)c(OC)c2)cc1", 73.6),
]

Exam item: # input compound: CC(=O)Nc1ccc(-c2cc3c(NCc4ccc(F)cc4)ncnc3s2)cc1 ; wanted: its growth
Marked response: 70.5

Exam item: Please do the same for Cc1c(C(=O)O[C@H]2[C@@H]3[C@H](C)CC[C@H]3[C@]3(C)O[C@@]2(C2CCCCC2)C[C@H]3OC(=O)CO)ccc2ccccc12 as well.
Marked response: 59.8

Exam item: Please do the same for Cl.Fc1c[c-]c(-c2ccccn2)c(F)c1.[Pt].c1ccc([PH+](C[PH+](c2ccccc2)c2ccccc2)c2ccccc2)cc1 as well.
Marked response: -81.4

Exam item: Please do the same for Cn1c(NCCc2ccc(O)c(O)c2)nc2c1c(=O)n(Cc1ccc(Cl)cc1)c(=O)n2C as well.
Marked response: 69.9

Exam item: Please do the same for C=C(CNCCc1ccc(O)cc1)[C@@H]1CC[C@]2(COC3CCCCO3)CC[C@]3(C)[C@H](CC[C@@H]4[C@@]5(C)CCC(N)C(C)(C)[C@@H]5CC[C@]43C)[C@@H]12 (stereo partly drawn) as well.
Marked response: -90.7

----------
Tested on: SK-MEL-5 melanoma
procedureSummary: NCI-60 one-dose screen, 48 h (100 = growth as untreated, 0 = no growth, -100 = all killed)
conditionsUsed: 10 µM unless noted
About 83,000 compounds went through this panel and 20% of them were active in at least one assay; those are over-represented in the sample as a whole. Activity calls are given as the source filed them. Rule for the calls: active = growth percent below 10; inactive = the rest.
Reported growth values for a set of molecules

Please review the following examples before continuing.
# molecule, growth
measured = [
    ("Cc1ccc(NSc2ccccc2[N+](=O)[O-])cc1", "13.6% (inactive)"),
    ("COc1ccc(O)c(-c2cc(-c3ccccc3)c(C#N)c(=O)[nH]2)c1", "73.7% (inactive)"),
    ("O=C(Nc1ccccc1Cl)OCCN1CCOCC1", "108% (inactive)"),
    ("C=C(C)C1CCC(=C)C2CCC3(C)OC12/C=C(/COC(C)=O)CCC3O (centres undefined)", "93.2% (inactive)"),
    ("CN(C)c1cnccn1", "96.1% (inactive)"),
    ("CCOc1ccc2nc(-c3cccc(OCC(=O)NC(C)C)c3)nc(Nc3ccc(-c4cn[nH]c4)cc3)c2c1", "-81.1% (active)"),
]

Exam item: Lab note: need growth for COc1ccc(-c2cc(-c3cc(OC)ccc3O)[nH]c(=O)c2C#N)cc1 on SK-MEL-5 melanoma, anyone have it?
Marked response: 31.4% (inactive)

Exam item: Please do the same for CCNCCNc1cc(-c2ccc(C(=O)OC)cc2)c(C#N)c2nc3ccccc3n12 as well.
Marked response: 71.6% (inactive)

Exam item: Please do the same for N=C(N)c1ccc(-c2ccc(-c3ccc(Cl)cc3Cl)o2)nc1 as well.
Marked response: 87% (inactive)

----------
System: SK-MEL-28 melanoma
procedureSummary: NCI-60 one-dose screen, 48 h
conditionsUsed: 10 µM unless noted
Compounds without any hit were thinned out: in the full panel of roughly 83,000, 20% have a hit. Calls of active or inactive are those of the source. Rule for the calls: active = growth percent below 10; inactive = the rest.
API: response.call in 1 (yes) (active), 0 (no) (inactive)

# compound, testTarget, group
records = [
    ("O=C1/C(=C/c2ccccc2[N+](=O)[O-])COc2ccc(O)c(O)c21", "SK-MEL-28 melanoma", "1 (yes)"),
    ("O=C(/C=C/C12c3ccccc3C(c3ccccc31)C1C(=O)N(c3ccccc3)C(=O)C12)c1ccccc1 (configuration not stated)", "SK-MEL-28 melanoma", "1 (yes)"),
    ("NS(=O)(=O)Oc1ccc(-c2sc3cc(O)ccc3c2C(=O)c2ccc(OCCN3CCCCC3)cc2)cc1", "SK-MEL-28 melanoma", "0 (no)"),
    ("NC(=O)CC1(O)C=C(Br)C(=O)C(Br)=C1", "SK-MEL-28 melanoma", "0 (no)"),
    ("Nc1nc(I)c2ncn(C3OC(CO)C(O)C3O)c2n1 (configuration not stated)", "SK-MEL-28 melanoma", "0 (no)"),
    ("CN1CCN(CCCOc2ccc3nc(Nc4cc(Cl)cc(Cl)c4)ccc3c2)CC1", "SK-MEL-28 melanoma", "1 (yes)"),
    ("CCn1c(Sc2nnc(Nc3ccccc3)s2)nc2c1c(=O)n(C)c(=O)n2C", "SK-MEL-28 melanoma", "0 (no)"),
    ("Cc1nc(Nc2ccc(NC(=S)Nc3ccccc3)cc2)c2ccccc2n1", "SK-MEL-28 melanoma", "0 (no)"),
    ("CCCn1nc(-c2ccccc2)c2c(-c3ccccc3)onc2c1=O", "SK-MEL-28 melanoma", "0 (no)"),
    ("CCCCNCC(=O)Nc1ccc(C(=O)OCC)cc1", "SK-MEL-28 melanoma", "0 (no)"),
]

Exam item: Status in this test for CNC(=O)c1cc(Oc2ccc3nc(Nc4cc(Cl)cc(Cl)c4)ccc3c2)ccn1 ?
Marked response: 0 (no)

Exam item: Please do the same for CC(=O)c1cc2c(o1)C(=O)c1ccccc1C2=O as well.
Marked response: 1 (yes)

Exam item: Please do the same for COc1cc2c(=O)n(CCCn3ccnc3)c3c4cc5c(cc4ccc3c2cc1OC)OCO5 as well.
Marked response: 0 (no)

Exam item: Please do the same for CCCCOC(=O)c1ccc(NC(=O)C(C)N2CCOCC2)cc1 (configuration not stated) as well.
Marked response: 0 (no)

Exam item: Please do the same for c1ccc(-c2oc3ccccc3c2-c2ccccc2)cc1 as well.
Marked response: 0 (no)

Exam item: Please do the same for CC(=O)OCCc1ccccc1 as well.
Marked response: 0 (no)

Exam item: Please do the same for Cc1c(Cl)cccc1NS(=O)(=O)c1ccccc1 as well.
Marked response: 0 (no)

Exam item: Please do the same for CN(C)c1ccc(C#Cc2c(F)cccc2Cl)cc1 as well.
Marked response: 0 (no)

Exam item: Please do the same for O=C1c2cccc3c(-c4ccc(-c5nc6c7ccccc7c7ccccc7c6[nH]5)cc4)ccc(c23)C(=O)N1CCN1CCNCC1 as well.
Marked response: 0 (no)

Exam item: Please do the same for CCCCCCN(CCCCCC)CC(O)c1cccc2ccc(Cl)cc12 (configuration not stated) as well.
Marked response: 0 (no)

Exam item: Please do the same for COC(=O)CNC(=O)C(=O)c1c(O)c(O)c(C(C)C)c2cc(C)c(-c3c(C)cc4c(C(C)C)c(O)c(O)c(C(=O)C(=O)NCC(=O)OC)c4c3O)c(O)c12 as well.
Marked response: 0 (no)

Exam item: Please do the same for O=C(NCOC(O)C(Cl)(Cl)Cl)NCOC(O)C(Cl)(Cl)Cl (configuration not stated) as well.
Marked response: 0 (no)

Exam item: Please do the same for CCn1c(Sc2nnc(NC(C)=O)s2)nc2c1c(=O)n(C)c(=O)n2C as well.
Marked response: 0 (no)

Exam item: Please do the same for Cc1nc(Nc2ccc(NC(=S)Nc3ccccc3)cc2)nc2nc(SCc3ccccc3)[nH]c(=O)c12 as well.
Marked response: 0 (no)

Exam item: Please do the same for Cc1[nH]c(-c2nc3ccccc3[nH]2)c(C)c1C(=O)NNc1ccc(Cl)cc1 as well.
Marked response: 0 (no)

Exam item: Please do the same for Cc1nc(-c2ccccc2)cc2c(O)c(C(=O)N/N=C/c3ccc(N(C)C)cc3)[nH]c(=O)c12 as well.
Marked response: 0 (no)

Exam item: Please do the same for O=c1[nH]nc(-c2ccc(Cl)cc2)cc1Cc1ccccc1 as well.
Marked response: 0 (no)

----------
Reported growth values for a set of molecules
Tested on: A498 renal
procedureSummary: NCI-60 one-dose screen, 48 h (100 = growth as untreated, 0 = no growth, -100 = all killed)
conditionsUsed: 10 µM unless noted
About 83,000 compounds went through this panel and 20% of them were active in at least one assay; those are over-represented in the sample as a whole.
Numeric only. Scale: %

Please review the following examples before continuing.
# molecule, testTarget, measurementUnit, growth
rows = [
    ("CCN(CC)CCOc1ccc(/C(=C(\\C)c2ccc(OC)c(F)c2)c2ccc(Cl)cc2)cc1", "A498 renal", "%", 102),
    ("N=c1ccn2c(n1)OC1C(O)C(CO)OC12 (configuration not stated)", "A498 renal", "%", 74.7),
    ("O=C(Nc1ccccc1Cl)OCCN1CCOCC1", "A498 renal", "%", 129),
]

Exam item: Lab note: need growth for CCOC(=O)C1=C(C)NC(SCc2nnc(-c3ccc(Cl)cc3)o2)=NC1c1ccc(Cl)cc1Cl (configuration not stated) on A498 renal, anyone have it?
Marked response: 77.7
